Values from ChEMBL document CHEMBL4495565

test: in vitro; settings: chlorocebus sabaeus, vero c1008, Selectivity index
Counter-ions that a name gives are not always drawn.
Would you mind telling me the reported selectivity ratio of each entry?

INSERT INTO results (compound, reported_endpoint, result_value) VALUES
  ('CC(C)n1nc(-c2cc3cc(O)ccc3[nH]2)c2c(N)ncnc21', 'selectivity ratio', 0.05),
  ('CN(C)c1cccc(-c2c3c(=O)n(-c4ccccc4Cl)[nH]c3cc(=O)n2C)c1 [SETANAXIB]', 'selectivity ratio', 1.26),
  ('O[C@@H](COc1cccc2ncccc12)CN1CCN([C@@H]2c3ccccc3[C@@H]3[C@H](c4ccccc42)C3(F)F)CC1 [ZOSUQUIDAR TRIHYDROCHLORIDE]', 'selectivity ratio', 1.08);

// below: selectivity ratio requested for another compound
For the compound shown here, O=C(C1CC1)N1CC[C@@H](Cc2n[nH]c(=O)n2-c2ccc(-c3ccc4occc4c3)cc2)C1 , give the reported selectivity ratio.
1.94

* * *

test system: SARS-CoV-2; assay: microbe, parasite or virus in culture; type: functional, organism-based, Chlorocebus sabaeus, Vero C1008; conditions: Severe acute respiratory syndrome coronavirus 2, Vero C1008, 48 h
reported-endpoint: pIC50
Numbers only, as −log10 of the molar value.

Each compound below has a recorded value; state its pIC50.
1. Cc1nc2cnc3ccc(C#Cc4cccnc4)cc3c2n1-c1ccc(C(C)(C)C#N)cc1
2. CN(C)c1cccc(-c2c3c(=O)n(-c4ccccc4Cl)[nH]c3cc(=O)n2C)c1
3. COc1ccc(-c2cc3c(C)nc(N)nc3n([C@H]3CC[C@H](OCCO)CC3)c2=O)cn1
4. Nc1cc2c3ccccc3ccc2c2ccccc12
5. CCN1CCN(Cc2ccc(-c3cc4c(N[C@H](C)c5ccccc5)ncnc4[nH]3)cc2)CC1
6. CN(Cc1cnc2nc(N)nc(N)c2n1)c1ccc(C(=O)N[C@@H](CCC(=O)O)C(=O)O)cc1 [METHOTREXATE]
7. Nc1c[nH]c(=O)c2cc(-c3ccccc3)sc12

1. 6.96
2. 4.93
3. 6.26
4. 4.93
5. 5.40
6. 7.30
7. 5.28

* * *

Would you mind telling me the reported CC50 at 48 h of each entry?
assay: in vitro; conditions: chlorocebus sabaeus, VERO-E6 cells (Vero C1008), uninfected, CC50
Square brackets hold non-standard residues; d marks the D form. Peptide text beside a SMILES is read from it. * marks the point of attachment. dPhe(4-NHCONH2) = NC(=O)Nc1ccc(C[C@@H](N)C(=O)O)cc1; Dihydroorotyl(S) = O=C1C[C@@H](C(=O)*)NC(=O)N1; dPhe(4-Cl) = N[C@H](Cc1ccc(Cl)cc1)C(=O)O; Phe(4-NH2) = Nc1ccc(C[C@H](N)C(=O)O)cc1; d2Nal = N[C@H](Cc1ccc2ccccc2c1)C(=O)O; Lys(iPr) = CC(C)NCCCC[C@H](N)C(=O)O; d3Pal = N[C@H](Cc1cccnc1)C(=O)O

INSERT INTO assay_data (compound, result_value) VALUES
  ('CC1(N2CCC(n3c([C@@H]4CCCNC4)nc4ccccc43)CC2)CCCCCCC1', '> 33 µM');

For the compound shown here, CC(=O)N[C@H](Cc1ccc2ccccc2c1)C(=O)N[C@H](Cc1ccc(Cl)cc1)C(=O)N[C@H](Cc1cccnc1)C(=O)N[C@@H](CO)C(=O)N[C@@H](Cc1ccc(NC(=O)[C@@H]2CC(=O)NC(=O)N2)cc1)C(=O)N[C@H](Cc1ccc(NC(N)=O)cc1)C(=O)N[C@@H](CC(C)C)C(=O)N[C@@H](CCCCNC(C)C)C(=O)N1CCC[C@H]1C(=O)N[C@H](C)C(N)=O [DEGARELIX] (Ac-[d2Nal][dPhe(4-Cl)][d3Pal]S[Phe(4-NH2)](Dihydroorotyl(S))[dPhe(4-NHCONH2)]L[Lys(iPr)]P[dA]-NH2) , give the reported CC50 at 48 h.
> 33 µM

* * *

test system: SARS-CoV-2; conditions: Chlorocebus sabaeus; Vero C1008; 10 uM
reported-endpoint: inhibition (%)
One number for each entry, in %.

INSERT INTO measurements (query_sequence, result_value) VALUES
  ('TOCOFERSOLAN', 41.8),
  ('ACRIFLAVINE HYDROCHLORIDE', -0.35),
  ('GADOTERIDOL', -0.08),
  ('VANADATE ION', 0.02),
  ('MERBROMIN', 0);

Each sequence below has a recorded value; state its inhibition.
1. CYANOCOBALAMIN
2. NYSTATIN
3. PHENYLMERCURIC ACETATE
4. COLISTIMETHATE SODIUM
5. CETRIMONIUM BROMIDE
6. AUROTHIOGLUCOSE

1: 0.04; 2: 0.08; 3: -0.23; 4: -0.25; 5: 0.3; 6: -0.05

* * *

assay: in vitro; conditions: chlorocebus sabaeus, VERO-E6 cells, Selectivity index
Threshold check on selectivity ratio: at or above 0.2 gives Fulfilled, strictly below gives Not fulfilled.

Example entries begin here.
INSERT INTO results (structure_as_smiles, class_assignment) VALUES
  ('CC(C)(C)c1cc(C=C(C#N)C#N)cc(Br)c1O', 'Fulfilled'),
  ('CC(C)(C)c1ccccc1Oc1ncccc1NC(=O)Nc1ccc(OC(F)(F)F)cc1', 'Fulfilled'),
  ('COc1ccc(-c2c[nH]c3nccc(-c4ccsc4)c23)c(OC)c1', 'Not fulfilled');

Would you say CCS(=O)(=O)c1ccc(CC(=O)Nc2cc(Cl)c(-c3ccccc3OC(F)(F)F)c(Cl)c2)cc1 shows selectivity ratio at minimum 0.2?
Fulfilled

Would you mind doing CCN(CC)Cc1cc(Nc2ccnc3cc(Cl)ccc23)ccc1O as well?
Fulfilled

Would you mind doing CNC(=O)Nc1ccc(-c2nc(N3CC4CCC(C3)O4)c3cnn(C4CCC5(CC4)OCCO5)c3n2)cc1 as well?
Not fulfilled

* * *

Would you mind telling me the reported selectivity ratio of each entry?
test: in vitro; conditions: chlorocebus sabaeus, VERO-E6 cells, Selectivity index
One number for each entry.

INSERT INTO measurements (compound, result_value) VALUES
  ('Nc1nccc2c1ncn2[C@@H]1C=C(CO)[C@@H](O)[C@H]1O', 0.14);

Each compound below has a recorded value; state its selectivity ratio.
1. Cc1ccc(Nc2ncc3c(n2)N(C)C(=O)N(c2cc(NC(=O)c4cccc(C(F)(F)F)c4)ccc2C)C3)cn1
2. COCCNCc1ccc(-c2cc3nccc(Oc4ccc(NC(=S)NC(=O)Cc5ccc(F)cc5)cc4F)c3s2)nc1 [GLESATINIB]
3. Cc1cc(O)c2c(=O)c3c(O)cc(O)c4c5c(O)cc(O)c6c(=O)c7c(O)cc(C)c8c1c2c(c34)c(c78)c65 [HYPERICIN]
4. COc1ccc(CNc2nc(N(CCO)CCO)nc3c2ncn3C(C)C)cc1
5. COC(=O)C[C@@](O)(CCC(C)(C)O)C(=O)O[C@@H]1C(OC)=C[C@]23CCCN2CCc2cc4c(cc2[C@@H]13)OCO4
6. Cc1nc2cnc3ccc(C#Cc4cccnc4)cc3c2n1-c1ccc(C(C)(C)C#N)cc1

0.12
0.62
5.24
0.82
2.46
1

Each compound below has a recorded value; state its selectivity ratio.
1. Cc1[nH]c(/C=C2\C(=O)Nc3cc(-c4ccccc4)ccc32)c(C)c1CCC(=O)O
2. COc1cc(C[C@H]2c3cc(OC)c(OC)cc3CCN2C)c(Oc2cc3c(cc2OC)-c2c(OC)c(OC)cc4c2[C@H](C3)N(C)CC4)cc1OC [THALICARPINE]
3. CC(C)(C)C(=O)/C(=C/c1cccc([N+](=O)[O-])c1)n1cncn1
4. OCCCNc1cc(-c2ccnc(Nc3cccc(Cl)c3)n2)ccn1
5. Nc1ncnc2c1c(-c1cnc3[nH]ccc3c1)nn2C1CCCC1
6. N[C@H]1CC[C@H](N[C@@H]2C[C@H]2c2ccccc2)CC1

1. 0.01
2. 8.53
3. 1.23
4. 1.03
5. 0.76
6. 1

* * *

assay: in vitro; conditions: chlorocebus sabaeus, VERO-E6 cells (Vero C1008), uninfected, CC50
Would you mind telling me the reported CC50 at 48 h of each entry?
Numbers only, in µM.

INSERT INTO measurements (compound, result_value) VALUES
  ('O=C(c1c2ccccc2cc2ccccc12)N1CCC(N2CCC[C@@H](C(=O)N3CCOCC3)C2)CC1', 10.2);

Each compound below has a recorded value; state its CC50 at 48 h.
1. Cc1cc2c(F)c(Oc3ncnn4cc(OC[C@@H](C)OC(=O)[C@H](C)N)c(C)c34)ccc2[nH]1 [BRIVANIB ALANINATE]
2. CC(C)COCC(CN(Cc1ccccc1)c1ccccc1)N1CCCC1 (stereo unspecified)
3. Clc1ccccc1CNC[C@H]1CC[C@H](CNCc2ccccc2Cl)CC1
4. COc1cc(/C=C2\SC(=O)NC2=O)ccc1Oc1ccc(C#N)cc1C(F)(F)F
5. C/C=C/C[C@@H](C)C(=O)[C@H]1C(=O)N[C@@H](C(C)C)C(=O)N(C)CC(=O)N(C)[C@@H](CC(C)C)C(=O)N[C@@H](C(C)C)C(=O)N(C)[C@@H](CC(C)C)C(=O)N[C@@H](C)C(=O)N[C@H](C)C(=O)N(C)[C@@H](CC(C)C)C(=O)N(C)[C@@H](CC(C)C)C(=O)N(C)[C@@H](C(C)C)C(=O)N1C [VALSPODAR]
6. C[C@@H]1C[C@@H]([C@H](O)CC2CC(=O)NC(=O)C2)C(=O)[C@@H](C)C1 [CYCLOHEXIMIDE]

2.58
23.4
30.9
3.33
13.4
10.2

Each compound below has a recorded value; state its CC50 at 48 h.
1. Nc1nc(N)c2nc(CNc3ccc(C(=O)N[C@@H](CCC(=O)O)C(=O)O)cc3)cnc2n1 [AMINOPTERIN]
2. CCN(CC)CCCCNc1ncc2cc(-c3c(Cl)cccc3Cl)c(NC(=O)NC(C)(C)C)nc2n1

1. 0.03
2. 12.7

Each compound below has a recorded value; state its CC50 at 48 h.
1. Cc1nc2cnc3ccc(C#Cc4cccnc4)cc3c2n1-c1ccc(C(C)(C)C#N)cc1
2. COc1ccc(CNc2nc(N(CCO)CCO)nc3c2ncn3C(C)C)cc1
3. CCS(=O)(=O)c1ccc(CC(=O)Nc2cc(Cl)c(-c3ccccc3OC(F)(F)F)c(Cl)c2)cc1
4. Cc1[nH]c(/C=C2\C(=O)Nc3cc(-c4ccccc4)ccc32)c(C)c1CCC(=O)O

1: 0.11; 2: 6.49; 3: 12.1; 4: 0.03
